Reported residual activity values are given for each entry in this list.
Molecular target: RIPK2 (human)
Assay: radiometric filter-binding kinase assay, Kinase HotSpot
Details: compound 0.5 µM; ATP 10 µM
Respond with a number, then the unit of measure.

Some entries whose results are on file:
query.smiles	residual activity
CC(C)N(CCC(=O)c1ccc2ccccc2c1)Cc1ccccc1	78.3%
CC#CC(=O)Nc1cc2c(Nc3ccc(F)c(Cl)c3)ncnc2cn1	38.7%
N#CC(C#N)=C(N)/C(C#N)=C/c1ccc(O)cc1	95.5%
N#C/C(=C(/N)Sc1ccc(N)cc1)c1ccccc1C(F)(F)F	91%
CCN(CC)CCNC(=O)c1c(C)[nH]c(/C=C2\C(=O)Nc3ccc(Cl)cc32)c1C	84.1%

residual activity recorded for this compound, "O=c1cc(N2CCOCC2)oc2c1ccc1ccccc12" , is 104%

residual activity recorded for this compound, "CCC(=O)Nc1ccc2ncnc(Nc3cccc(Br)c3)c2c1" , is 71.4%

residual activity recorded for this compound, "c1ccc(-c2n[nH]c3c2oc2ccccc23)cc1" , is 78.8%

residual activity recorded for this compound, "Cc1ccc(Nc2nccc(N(C)c3ccc4c(C)n(C)nc4c3)n2)cc1S(N)(=O)=O" , is 68.2%

residual activity recorded for this compound, "Nc1ncnc2[nH]nc(Nc3ccc(F)cc3)c12" , is 68.7%

residual activity recorded for this compound, "O=C1NC(=O)c2c1c1c3ccccc3n3c1c1c2c2ccccc2n1C1CCC3O1" , is 79.7%
